Assignment: determine reported protein stability index for the given variants.
B1: POMT2 (parent)
chain: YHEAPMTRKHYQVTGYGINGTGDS

Variants of: B1
assay_name: protein stability index of a GFP-peptide fusion (GPS, HEK-293T) (PSI 1-6); higher = more stable;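 also: lentivirally expressed fusions sorted by FACS into six bins by GFP to DsRed ratio, PSI derived from sequencing read proportions per bin multiplied by bin number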
assay_context: c terminus: a fixed tail appended
Give bare numbers.

These recorded examples may help you get a feel for the data.
sequence_variant: Y1K
readout_name: protein stability index
experimental_value: 3.97
//
sequence_variant: V13Y
readout_name: protein stability index
experimental_value: 2.97
//
sequence_variant: Q12T
readout_name: protein stability index
experimental_value: 2.16
//
sequence_variant: K9S
readout_name: protein stability index
experimental_value: 2.29
//
sequence_variant: T7H
readout_name: protein stability index
experimental_value: 2.03

Record protein stability index per entry; entries follow.
1. Q12V
2. K9Q
3. M6P
4. D23E
5. P5E

Key:
2.36
2.9
2.55
2.11
3.17

# map each variant to its protein stability index
1. V13S
2. A4M
3. G15A
4. Y11Q
5. E3N

Key:
[3.32, 1.49, 2.25, 3.57, 2.38]

Where do these numbers come from? They come from the supplement of paper PMC10567573.
